- MEASUREMENT_TARGET: Beta-3 Adrenergic Receptor (Homo sapiens (Human), UniProt P13945)
- Sequence (P13945 whole entry, species assumed): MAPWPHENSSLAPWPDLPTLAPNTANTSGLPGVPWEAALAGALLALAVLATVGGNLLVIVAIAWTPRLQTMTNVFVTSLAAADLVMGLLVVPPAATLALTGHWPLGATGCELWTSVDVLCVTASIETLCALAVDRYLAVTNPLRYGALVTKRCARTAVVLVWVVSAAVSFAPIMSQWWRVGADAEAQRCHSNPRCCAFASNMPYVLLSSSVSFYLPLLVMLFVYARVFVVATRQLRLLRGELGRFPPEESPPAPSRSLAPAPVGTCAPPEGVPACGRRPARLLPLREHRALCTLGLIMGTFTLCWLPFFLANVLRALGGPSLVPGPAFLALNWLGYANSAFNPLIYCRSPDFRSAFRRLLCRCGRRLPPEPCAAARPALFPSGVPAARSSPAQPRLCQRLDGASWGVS
- ASSAY_PROCEDURE: Homogeneous Time-Resolved Fluorescence (HTRF) cAMP antagonist assay, IC50 determination
- RECORDED_CONDITIONS: CHO-K1 cells stably expressing recombinant receptor, isoproterenol at EC90
For each record, check the reported IC50: if it is below 80 nM write yes (1), else write no (0).

Identify whether the molecule CCCc1cnc(N2CCC3(CC2)C[C@@H](NC[C@H](O)COc2cccc(S(=O)(=O)NC)c2)CO3)nc1 [Compound 579] records IC50 below 80 nM.
no (0)

Identify whether the molecule CNS(=O)(=O)c1cccc(OC[C@@H](O)CNC2COC3(CCN(S(=O)(=O)c4ccc5nsnc5c4)CC3)C2)c1 (stereo partly shown) [Compound 177] records IC50 below 80 nM.
yes (1)

Identify whether the molecule CNS(=O)(=O)c1cccc(OC[C@@H](O)CNC2COC3(CCN(S(=O)(=O)c4cccc(-c5ccco5)c4)CC3)C2)c1 (stereo partly shown) [Compound 78] records IC50 below 80 nM.
yes (1)

Identify whether the molecule CNS(=O)(=O)c1cccc(OC[C@@H](O)CN[C@H]2COC3(CCN(S(=O)(=O)c4cn(C)c5ccccc5c4=O)CC3)C2)c1 [Compound 494] records IC50 below 80 nM.
yes (1)

Identify whether the molecule CNS(=O)(=O)c1cccc(OC[C@@H](O)CNC2COC3(CCN(S(=O)(=O)c4ccc(CO)cc4)CC3)C2)c1 (stereo partly shown) [Compound 392] records IC50 below 80 nM.
no (0)

Identify whether the molecule CNS(=O)(=O)c1cccc(OC[C@@H](O)CNC2COC3(CCN(S(=O)(=O)c4ccccc4C(F)(F)F)CC3)C2)c1 (stereo partly shown) [Compound 33] records IC50 below 80 nM.
yes (1)
